metric: melting point

Worked set:
COc1nc(C)cnc1NS(=O)(=O)c1ccc(Cl)cc1Cl [Example 47] | 135 to 136 °C
COc1nc(-n2cncn2)cnc1NS(=O)(=O)c1cccc(Cl)c1Cl [Example 167] | 248 to 249 °C
COc1nc(SC)cnc1NS(=O)(=O)c1cccc(Cl)c1Cl [Example 80] | 141 to 142 °C
COc1nc(SCc2ccccc2Cl)cnc1NS(=O)(=O)c1cccc(Cl)c1Cl [Example 84] | 119 to 120 °C

Now let's try a different one.
Endpoint output: melting point of COc1nc(Cl)cnc1NS(=O)(=O)c1cccc(Cl)c1F [Example 122] . Value?
156 to 157 °C

====

metric: melting point

Worked set:
COc1nc(Br)c(C)nc1NS(=O)(=O)c1cccc(Cl)c1Cl | 146 to 148 °C
Cc1cnc(NS(=O)(=O)c2cccc(Cl)c2Cl)c(OCc2ccco2)n1 | 127 to 129 °C
COc1ncc(C)nc1NS(=O)(=O)c1cccc(Cl)c1Cl | 50 to 60 °C
COC(=O)c1nccnc1NS(=O)(=O)c1cccc(Cl)c1Cl | 177 to 178 °C

Endpoint output: melting point of CCN(CC)C(=O)COc1cnc(NS(=O)(=O)c2cccc(Cl)c2Cl)c(OC)n1 . Value?
117 to 118 °C

Endpoint output: melting point of Cc1cnc(NS(=O)(=O)c2cccc(Cl)c2Cl)c(OCc2cccnc2)n1 . Value?
160 to 161 °C

====

# Lookup of reported melting point keyed by entry

Worked set:
C#CCOc1nccnc1NS(=O)(=O)c1cccc(Cl)c1Cl | 153 to 154 °C
COc1ncc(Cl)nc1NS(=O)(=O)c1ccc(Cl)cc1 | 174 to 175 °C
COc1nc(N(C)C)c(Cl)nc1NS(=O)(=O)c1cccc(Cl)c1Cl | 145 to 146 °C
NCc1ccc(COc2nccnc2NS(=O)(=O)c2cccc(Cl)c2Cl)o1 | 199 to 201 °C
O=S(=O)(Nc1nc(Cl)cnc1OCc1cccnc1)c1cccc(Cl)c1Cl | 203 to 204 °C
COc1nc(Cl)c(Cl)nc1NS(=O)(=O)c1ccc(Cl)cc1 | 186 to 187 °C
COc1nc(Cl)cnc1NS(=O)(=O)c1ccc(Cl)cc1Cl | 170 to 171 °C
Cc1cnc(NS(=O)(=O)c2cccc(Cl)c2Cl)c(OCc2ncccc2C)n1 | 137 to 138 °C

Endpoint output: melting point of COc1nc(N2CCOCC2)c(Cl)nc1NS(=O)(=O)c1cccc(Cl)c1Cl . Value?
150 to 151 °C

Endpoint output: melting point of COc1nc(SCC#N)cnc1NS(=O)(=O)c1cccc(Cl)c1Cl . Value?
158 to 159 °C

Endpoint output: melting point of CSCCOc1nc(Cl)cnc1NS(=O)(=O)c1cccc(Cl)c1Cl . Value?
140 to 141 °C

Endpoint output: melting point of CC(Oc1nc(Cl)cnc1NS(=O)(=O)c1cccc(Cl)c1Cl)C1CC1 (stereo not drawn) . Value?
161 to 162 °C

Endpoint output: melting point of Cc1cnc(NS(=O)(=O)c2cccc(Cl)c2Cl)c(OCc2ccc[n+]([O-])c2)n1 . Value?
223 to 228 °C

Endpoint output: melting point of COCCNc1nc(OC)c(NS(=O)(=O)c2cccc(Cl)c2Cl)nc1Cl . Value?
177 to 178 °C

Endpoint output: melting point of COc1nc(C)cnc1NS(=O)(=O)c1cccc(Cl)c1 . Value?
123 to 125 °C

Hey, just so you know, these numbers are from patent US7662825B2.
